- Tested on: RIOK2
- Applied Conditions: concentration: 1 μM, replicates: in singlicate; n = 1;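 note: KINOMEscan kinase panel screen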
Mark not fulfilled for %Inh values under 6%, and fulfilled for everything at or above.

Previously resolved entries follow.
Nc1ncnc2scc(-c3ccc(NC(=O)Cc4cc(F)ccc4F)cc3)c12.O=C(O)C(F)(F)F [SB-731254-M]
fulfilled
CCNC(=O)/C=C/c1n[nH]c2cc(Sc3ccccc3C(=O)NC)ccc12
fulfilled
CCn1c(-c2nonc2N)nc2c(-c3ccccc3)ncc(OCCCN)c21.O=C(O)C(F)(F)F.O=C(O)C(F)(F)F [GSK260205]
fulfilled
Cc1ccccc1CC(=O)N1CCc2cc(-c3cn(C)c4ncnc(N)c34)ccc21 [GSK2603346]
fulfilled
COC(=O)Nc1nc2ccc(Oc3ccc(CC(=O)Nc4cc(C(F)(F)F)ccc4F)cc3)cc2[nH]1 [GW680903]
not fulfilled

Check this compound for %Inh at or above 6%: Cc1cccc(Nc2nc(NCCN)ncc2C(N)=O)c1 [GSK1292139]
not fulfilled

Tell me whether %Inh is at least 6% here: O=C(Nc1n[nH]c2nc(-c3ccccc3)ccc12)C1CC1 [SB-708999]
not fulfilled

###

- System: LZK
- Construct: gene MAP3K13
- Applied Conditions: concentration: 1 μM, replicates: in singlicate; n = 1
I'd appreciate it if you marked entries 1.0 when %Inh is lower than 20% and 0.0 when it is not.

COc1cc(Nc2nccc(N3CCC(NS(=O)(=O)c4ccc(NC(C)=O)cc4)CC3)n2)cc(OC)c1OC
0.0
COC(=O)Nc1nc2ccc(Oc3ccc(CC(=O)Nc4cc(C(F)(F)F)ccc4F)cc3)cc2[nH]1
0.0
Cl.Cl.NC(CNC(=O)c1cc(Br)c(-c2ccnc3[nH]ccc23)s1)c1ccccc1 (centres unmarked)
1.0
COc1cccc(-c2nc(-c3ccccc3)[nH]c2-c2ccncc2)c1
1.0
CC(C)NCC(Cc1ccccc1)NC(=O)c1cc(Br)c(-c2ccnc3[nH]ccc23)s1.Cl.Cl (centres unmarked)
1.0
Cc1ccc(C)c(NC(=O)Nc2ccc(C)c(-c3ccc(C(=O)Nc4ccncc4)cc3)c2)c1
1.0
CN1CCN(Cc2ccc(NC(=O)Nc3ccc(N(C)c4ccnc(Nc5ccc(CS(C)(=O)=O)cc5)n4)cc3)cc2)CC1.Cl
0.0
Fc1cc(Cl)ccc1Nc1ccnc2cc(-c3ccc(CN4CCOCC4)o3)ccc12
1.0
Cc1ccc(O)cc1Nc1ccnc2cc(-c3ccc(CN4CCCCC4)o3)ccc12
1.0
COC(=O)Nc1nc2cc(Oc3ccc(NC(=O)Nc4cccc(SC)c4)cc3)ccc2[nH]1.Cl
0.0

For this compound, is %Inh lower than 20%? COc1cc(Nc2nccc(N3CCC(NC(=O)Nc4ccc5c(c4)OCO5)C3)n2)cc(OC)c1OC (centres unmarked)
0.0

Does the reported %Inh of Nc1ncc(-c2ccc3nccc(-c4ccncc4)c3c2)cc1S(=O)(=O)N1CCCCC1 stay below 20%?
1.0

Field: below-cutoff. Rule: recorded %Inh strictly less than 20%. Subject: Cc1ccc(Nc2ccnc(Nc3ccc(C)c(F)c3)n2)cc1O.Cl
0.0

Consider Cc1cccc(Nc2nc(NCCN)ncc2C(N)=O)c1 . Does its %Inh lie strictly below 20%?
1.0

%Inh strictly < 20% for this compound? O=C(Nc1c(F)cccc1F)c1cc(C(=O)c2ccccc2F)c[nH]1
1.0

In plain terms, does Cc1cc(-c2c(-c3ccc(F)cc3)ncn2CCCN2CCOCC2)nc(N)n1 come in under 20% for %Inh?
1.0

###

Measured %Inh accompanies every entry in the list below.
- System: ERK4
- Construct: gene MAPK4
- Applied Conditions: concentration: 1 μM, replicates: in singlicate; n = 1
// note: answer is a bare numeric in %

Solved entries:
CN1CCN(Cc2ccc(NC(=O)Nc3ccc(N(C)c4ccnc(Nc5ccc(CS(C)(=O)=O)cc5)n4)cc3)cc2)CC1.Cl
0
Cc1ccc(O)cc1Nc1ccnc2cc(-c3ccc(CN4CCCCC4)o3)ccc12
8
Cc1cccc(Nc2nc(NCCN)ncc2C(N)=O)c1
33
Cc1ccc(NC(=O)c2cccc(N3CCCCC3)c2)cc1-c1ccc(C(=O)NCC2CC2)cc1
23
O=C(Nc1n[nH]c2nc(-c3cccc(O)c3)ccc12)C1CC1
0
Cc1ccc(O)cc1Nc1ccnc2ccc(C(C)(C)C)cc12
6
COc1ccc(C)c(Nc2ccnc(Nc3ccc(-c4cnc[nH]4)cc3)n2)c1.Cl
0
Cl.N#CCc1ccc(Nc2nccc(Nc3ccc(Oc4ccccc4)cc3)n2)cc1
0

Shift focus to the following entry.
Entry COc1cc(Nc2nccc(N3CCC(NS(=O)(=O)c4ccc(NC(C)=O)cc4)CC3)n2)cc(OC)c1OC : reported %Inh = ?
0

###

- Tested on: CSNK1G3
- Applied Conditions: concentration: 1 μM, replicates: in singlicate; n = 1
Recorded %Inh, one value per entry.
Please respond with the number in % and leave the unit unwritten.

COc1cc(Nc2nccc(N3CCC(NS(=O)(=O)c4ccc(NC(C)=O)cc4)CC3)n2)cc(OC)c1OC
0
COc1ccc(C)c(Nc2ccnc(Nc3ccc(-c4cnc[nH]4)cc3)n2)c1.Cl
8
Cc1nn2c(=O)cc(N3CCO[C@H](C)C3)nc2n1Cc1cccc(Cl)c1Cl
26

Tell me the measured %Inh of Cc1ccc(O)cc1Nc1ccnc2ccc(C(C)(C)C)cc12 , please.
0

Reported %Inh, compound Fc1cc(Cl)ccc1Nc1ccnc2cc(-c3ccc(CN4CCSCC4)o3)ccc12 : ____
14

What value of measured %Inh is listed for CCNC(=O)/C=C/c1n[nH]c2cc(Sc3ccccc3C(=O)NC)ccc12 ?
13

###

- Test system: RIPK4
- Applied Conditions: concentration: 1 μM, replicates: in singlicate; n = 1
The threshold is 20%. Values of %Inh beneath it are tagged class 1; values meeting or exceeding it are tagged class 0.

The following compounds have reported results that may help.
O=C(Nc1n[nH]c2cc(-c3cccs3)ccc12)C1CC1
class 1
CSc1ccc(NC2=C(c3ccc(Cl)cc3)C(=O)NC2=O)cc1
class 1

Dear colleague, could you confirm whether %Inh of COc1cc(Nc2nccc(N3CCC(NC(=O)Nc4ccc5c(c4)OCO5)C3)n2)cc(OC)c1OC (centres unmarked) falls below 20%? Thanks.
class 0

State whether 20% exceeds %Inh recorded for CCn1cnc2c(NCc3ccccc3)ncnc21 .
class 1

Determine if COC(=O)Nc1nc2ccc(Oc3ccc(CC(=O)Nc4cc(C(F)(F)F)ccc4F)cc3)cc2[nH]1 shows %Inh strictly lower than 20%.
class 1

###

- Tested on: DDR2
- Applied Conditions: concentration: 1 μM, replicates: in singlicate; n = 1
Quantity Name: %Inh (%)
# number only, unit % dropped from output

CN(c1ccc(F)c(NC(=O)c2cccc(OC(C)(C)C#N)c2Cl)c1)c1ccc2nc(NC(=O)C3CC3)sc2n1
97

Report %Inh for Cl.Cl.NC(CNC(=O)c1cc(Br)c(-c2ccnc3[nH]ccc23)s1)c1ccccc1 (centres unmarked) [GSK1322949] please.
29

Requested read-out: %Inh. Entry: Cl.O=C(Nc1ccc(Oc2ccc3[nH]c(NC(=O)c4ccco4)nc3c2)cc1)Nc1cc(C(F)(F)F)ccc1F [GW683134]
95.7

Query (compound): COc1ccc(C)c(Nc2ccnc(Nc3ccc(-c4cnc[nH]4)cc3)n2)c1.Cl [GW784041] ; field requested: %Inh
70

# get_value(readout='%Inh', item= COC(=O)Nc1nc2ccc(Oc3ccc(NC(=O)Nc4cc(C(F)(F)F)ccc4F)cc3)cc2[nH]1.Cl [GW654607] )
94.2

Entry CN(C)CCOc1ccc(-c2cc(-c3ccc(Cl)c(O)c3)c(-c3ccncc3)[nH]2)cc1.Cl.Cl [SB-684387] : reported %Inh = ?
38

Given the compound CCOc1nccc(-c2c(-c3ccc(F)cc3)ncn2C2CCNCC2)n1 [SB-249175] , what is its reported %Inh?
7

Query (compound): O=C1NC(=O)C(c2ccccc2Cl)=C1Nc1cccc(Cl)c1 [SB-342409] ; field requested: %Inh
0

###

Readings of %Inh for the listed compounds
- Test system: p38-gamma
- Construct: gene MAPK12
- Applied Conditions: concentration: 1 μM, replicates: in singlicate; n = 1
Reply with just the number (in %).

Worked examples, 3 compounds total:
COc1ccc(C2=C(Nc3cccc(O)c3)C(=O)NC2=O)cc1
0
CCn1c(-c2nonc2N)nc2c(-c3ccccc3)ncc(OCCCN)c21.O=C(O)C(F)(F)F.O=C(O)C(F)(F)F
2
Cc1ccc(Nc2ccnc(Nc3ccc(C)c(F)c3)n2)cc1O.Cl
0

Give the measured %Inh of CC(C)(C)c1ccc(C(=O)Nc2cn3cc(-n4ccnc4)ccc3n2)cc1 .
0

Request the reported %Inh associated with CN(c1ccc2c(c1)nc(NCc1ccccc1)n2C)c1ccnc(Nc2ccc(CS(C)(=O)=O)cc2)n1.Cl
0

For the compound CN(C)CCNS(=O)(=O)c1ccc(-c2ccnc3[nH]ccc23)cc1 , what %Inh is on record?
0
